These data points were gathered from PubChem BioAssay (Tox21).

Test summary: A CellTox Green Cytotoxicity Assay to monitor cytotoxicity in HEK293 cells - 0 hour (AID 1224869); note: % is set by controls: 0 for no effect and ±100 for the full control effect; nearly all actives have a fitted effect of over 50% in size
Study conditions: CellTox Green fluorescence; series mostly up to 76.8 µM
The source made the active and inactive calls. Calls come from the whole dose curve; as a rule, active = well fitted activation curve with a large enough effect in the repeat runs; inconclusive = weak or mixed curves; inactive = flat fitted curve, though single readings scatter.
Value type: cytotoxicity

These solved cases illustrate the format of a correct answer.
Compound: CC1=C2[C@H]3OC(=O)[C@@H](C)[C@@H]3CC[C@@]2(C)C=CC1=O
Reported result: inactive

Compound: OCC(Cl)CCl (stereo not drawn)
Reported result: inactive

Compound: ClCC1CO1 (stereo not drawn)
Reported result: inactive

Compound: CC(=O)OCC1=C(C(=O)O)N2C(=O)[C@@H](N)[C@H]2SC1
Reported result: 1.32% [at 15.8 µM] (inactive)

Compound: CCC(=O)OC1(c2ccccc2)CCN(C)CC1
Reported result: inactive

Compound: CNC(=O)Oc1ccccc1C(C)C
Reported result: inactive

Please give the measured cytotoxicity for this compound: CCCC(C)C1(CC)C(=O)N=C(S)NC1=O (stereo not drawn)
inactive

Now the same for CCOP(=S)(OCC)Oc1ccc(Cl)cc1Cl
inactive

Now the same for NC(=O)CS(=O)C(c1ccccc1)c1ccccc1 (stereo not drawn)
inactive

Now the same for C[C@H](CN1CCOCC1)C(C(=O)N1CCCC1)(c1ccccc1)c1ccccc1
inactive

Now the same for O=C1C2CC=CCC2C(=O)N1SC(Cl)(Cl)Cl (stereo not drawn)
inactive
